assay: Parallel artificial membrane permeability assay for the blood–brain barrier (PAMPA-BBB); settings: PAMPA, pH 7.4
# note: exactly 30 ×10⁻⁶ cm/s is not below, so it is No; use Yes for Papp at 4 h strictly under it

O=c1cc(-c2ccc(O)cc2)oc2cc(O)cc(O)c12    No
CC(=O)c1ccc(O)c(O)c1 [3,4-dihydroxyacetophenone]    Yes
O=c1cc(-c2ccc(O)c(O)c2)oc2cc(O)cc(O)c12    Yes

Determine whether this compound shows Papp at 4 h lower than 30 ×10⁻⁶ cm/s (ties excluded): COc1ccc(-c2cc(=O)c3c(OC)c(OC)c(OC)c(OC)c3o2)cc1OC
No

Determine whether this compound shows Papp at 4 h lower than 30 ×10⁻⁶ cm/s (ties excluded): COc1ccc(-c2cc(=O)c3c(O)cc(O)cc3o2)cc1O
No

* * *

system: HBMEC cells; test: Blood–brain barrier transport study in HBMEC Transwell monolayer; conditions: RootExt 20 µg mL^−1 apical; 24 h; n.q. = not quantified in the basolateral compartment
Measured Endpoint: RootExt Te (%) ± SD 24 h

See these solved cases before continuing.
O=Cc1ccc(O)cc1 [4-hydroxybenzaldehyde]    184.6 ± 23.0%
COc1ccc(-c2cc(=O)c3c(OC)c(OC)c(OC)c(OC)c3o2)cc1OC [Nobiletin]    n.q.
COc1cc2ccc(=O)oc2c(OC)c1O [Isofraxidin]    30.5 ± 6.6%
O=C(O)c1cccc(O)c1O [2,3-dihydroxybenzoic acid]    214.1 ± 45.4%
O=C(O)/C=C/c1ccc(O)cc1 [4-coumaric acid]    n.q.

Shifting focus to the molecule that follows.
Which RootExt Te (%) ± SD 24 h is listed for COc1ccc([C@@H]2CC(=O)c3c(O)cc(O[C@@H]4O[C@H](CO[C@@H]5O[C@@H](C)[C@H](O)[C@@H](O)[C@H]5O)[C@@H](O)[C@H](O)[C@H]4O)cc3O2)cc1O [Hesperidin] ?
n.q.

* * *

tested on: HBMEC cells; assay: Blood–brain barrier transport study in HBMEC Transwell monolayer; conditions: AerExt 40 µg mL^−1 apical; 2 h; n.q. = not quantified in the basolateral compartment
# note: exactly 6% is not below, so it is label 0; use label 1 for AerExt Te (%) ± SD 2 h strictly under it

Use the examples below as a reference point.
C/C=C\c1cc(OC)c(OC)cc1OC    label 0
C=C1CC[C@H]2O[C@]2(C)CC[C@@H]2[C@@H]1CC2(C)C [(–)-caryophyllene oxide]    label 1
O=c1cc(-c2ccc(O)cc2)oc2cc(O)cc(O)c12    label 1

Determine whether this compound shows AerExt Te (%) ± SD 2 h lower than 6% (ties excluded): COc1ccc(O)c(C=O)c1 [2-hydroxy-5-methoxybenzaldehyde]
label 0

* * *

tested on: HBMEC cells; test: Blood–brain barrier transport study in HBMEC Transwell monolayer; conditions: AerExt 40 µg mL^−1 apical; 4 h; n.q. = not quantified in the basolateral compartment
Catalogue of AerExt Te (%) ± SD 4 h values
Could you give me the number in %? Just the number is fine.

CC1(C)C[C@H](O)C[C@@]2(C)OC(=O)C=C12 [Loliolide]    12.1

Shifting focus to the compound that follows.
Recall the recorded AerExt Te (%) ± SD 4 h for C/C=C\c1cc(OC)c(OC)cc1OC with HBMEC cells and state it.
15.0
